A collection of compounds and their measured Emax
# Study system: human mAChR M1 (Homo sapiens, UniProt P11229)
# Sequence (P11229 whole entry): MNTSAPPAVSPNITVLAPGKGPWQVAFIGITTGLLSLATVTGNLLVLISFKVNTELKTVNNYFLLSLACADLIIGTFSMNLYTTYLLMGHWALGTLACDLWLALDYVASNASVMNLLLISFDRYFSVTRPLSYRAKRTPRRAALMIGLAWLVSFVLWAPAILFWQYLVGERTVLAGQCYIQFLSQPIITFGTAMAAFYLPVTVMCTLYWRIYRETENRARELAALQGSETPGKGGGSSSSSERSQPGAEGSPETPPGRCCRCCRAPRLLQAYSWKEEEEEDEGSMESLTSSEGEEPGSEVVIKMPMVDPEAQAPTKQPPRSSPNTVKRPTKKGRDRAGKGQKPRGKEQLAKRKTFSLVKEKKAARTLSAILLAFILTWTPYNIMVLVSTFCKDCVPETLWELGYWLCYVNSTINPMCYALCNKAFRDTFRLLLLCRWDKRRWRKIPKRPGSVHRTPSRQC
# Assay method text: mAChR M1 cell-based functional assay (calcium mobilization, PAM activity)
# Applied conditions: CHO-K1 cells expressing hM1; calcium flux (Fluo-4); potentiation of EC20 acetylcholine response
Property label: Emax

>>> value("Cn1cc(-c2ccc(Cc3cc(C(=O)N[C@H]4CCCC[C@@H]4O)c4ncnn4c3)cc2)cn1 [compound 31]")
"89%"
>>> value("Cn1ccc(-c2ccc(Cc3cc(C(=O)N[C@@H]4CCOC[C@H]4O)c4nccn4c3)cc2)n1 [compound 5]")
"78%"
>>> value("Cn1cc(-c2ccc(Cc3cc(C(=O)N[C@@H]4CC[C@H]4O)c4ncnn4c3)cn2)cn1 [compound 16]")
"67%"
>>> value("Cn1cc(-c2ccc(Cc3cc(C(=O)N[C@H]4CCOC[C@@H]4O)c4ncnn4c3)cn2)cn1 [compound 12]")
"83%"

Reference source for all entries: patent US20200131180A1
